Listing: LC retention time of selected compounds
# test_method_notes: RP, 50 × 0.5 mm, 2.7 µm, 35 °C, 0.01 mL/min, estimated dead time 0.62 min; A: water + 0.1% formic acid, pH 3; B: acetonitrile + 0.1% formic acid, pH 3; gradient (min/%B) 0/5 12/95 14/95 16/5
# measurement_setup: stereoisomer not certain
Returns: string containing the number followed by the unit.

Examples from the recorded data:
>>> assay_value("OC1C(O)C(O)C(O)C(O)C1O (stereo not given)")
"2.65 min"
>>> assay_value("O=S(=O)(O)Oc1c(O)cccc1O [Pyrogallol 2-O-sulfate]")
"1.4 min"
>>> assay_value("O=C(O)Cc1ccc(O)cc1 [4-Hydroxyphenylacetic acid]")
"2.53 min"

// field: LC retention time; key: `COc1cc(C=CC(=O)CC(=O)C=Cc2ccc(O)c(OC)c2)ccc1O` ; value = 7.99 min

// field: LC retention time; key: `CCCCCCCCCCCCCCCCCc1cc(O)cc(O)c1` ; value = 13.3 min

// field: LC retention time; key: CC1OC(OC2C(O)C(OCCc3ccc(O)c(O)c3)OC(CO)C2OC(=O)C=Cc2ccc(O)c(O)c2)C(O)C(O)C1O (stereo not given) [Verbascoside] ; value = 4.6 min

// field: LC retention time; key: Cc1c(C)c2c(c(C)c1O)CCC(C)(CCCC(C)CCCC(C)CCCC(C)C)O2 (stereo not given) ; value = 13.2 min

// field: LC retention time; key: `Oc1ccc(C=Cc2cc(O)cc(O)c2)cc1` ; value = 5.18 min

// field: LC retention time; key: O=C(C=Cc1ccc(O)c(O)c1)OC(Cc1ccc(O)c(O)c1)C(=O)O (stereo not given) ; value = 4.8 min

// field: LC retention time; key: `O=c1cc(-c2ccc(O)c(O)c2)oc2cc(O)cc(O)c12` ; value = 5.79 min

* * *

# test_method_notes: RP, Phenomenex Luna Omega Polar C18, 100 × 2.1 mm, 1.6 µm, 40 °C, 0.5 mL/min, estimated dead time 0.44 min; A: water + 0.5% formic acid; B: acetonitrile + 0.5% formic acid; gradient (min/%B) 0/5 3/50 3.1/100 5/100 5.1/5 7/5
# measurement_setup: stereoisomer not certain
Label key: TRUE means LC retention time under 2 min; FALSE means LC retention time of 2 min or more.

// known answers, use as guide
>>> discrete_label("O=C(C=Cc1ccc(O)c(O)c1)OC1CC(O)(C(=O)O)CC(O)C1O (stereo not drawn) [Chlorogenic acid]")
"TRUE"
>>> discrete_label("Oc1cc(O)c2c(c1)OC1(c3ccc(O)c(O)c3)Oc3cc(O)c4c(c3C2C1O)OC(c1ccc(O)c(O)c1)C(O)C4 (stereo not drawn) [Procyanidin A2]")
"FALSE"
>>> discrete_label("O=C(O)C=Cc1ccc(O)cc1 [p-Coumaric acid]")
"FALSE"
>>> discrete_label("CCCCCCCCCCCCCCCCCCCCCCCCCc1cc(O)cc(O)c1 [Alkylresorcinol C25:0]")
"FALSE"
>>> discrete_label("CC12CCc3occc3C1CCC13CC(CCC12)C(O)(CO)C3 (stereo not drawn) [Cafestol]")
"FALSE"

In: Is the reported LC retention time for OC1C(O)C(O)C(O)C(O)C1O (stereo not drawn) [Myo-inositol] strictly below 2 min?
Out: TRUE

* * *

# test_method_notes: RP, 150 × 2.1 mm, 2.6 µm, 40 °C, 0.35 mL/min, estimated dead time 0.94 min; A: water + 0.1% formic acid, pH 3; B: acetonitrile + 0.1% formic acid, pH 3; gradient (min/%B) 0/0 1/5 7/45 8.5/80 10.5/80 11/5 12/5
# measurement_setup: stereoisomer not certain
measured_quantity: LC retention time (min)
Answer in min, number only, no unit symbol.

>>> assay_value("CCC=CCC1C(=O)CCC1CC(=O)OC (stereo not given) [Methyl jasmonate]")
7.97

// field: LC retention time; key: Oc1cc(O)c2c(c1)OC(c1cc(O)c(O)c(O)c1)C(O)C2 (single isomer, unassigned; (-)) [(-)-Epigallocatechin] ; value = 4.07

// field: LC retention time; key: CC(=O)NCCc1c[nH]c2ccc(O)cc12 [N-acetylserotonin] ; value = 4.5

// field: LC retention time; key: COc1cccc(O)c1O [3-Methoxycatechol] ; value = 4.56

// field: LC retention time; key: COc1cc(-c2oc3cc(O)cc(O)c3c(=O)c2O)ccc1OC1OC(C(=O)O)C(O)C(O)C1O (stereo not given) [Isorhamnetin 4'-O-glucuronide] ; value = 6.21
